Cited source for all entries: paper PMC7158045

Can you tell me ΔTm at 10 µM for the items I'm about to list?
- system: ZmDRIK1-K217-S514 (Zea mays)
- Construct: kinase domain, K217-S514
- Sequence (C0P4K9 1-514): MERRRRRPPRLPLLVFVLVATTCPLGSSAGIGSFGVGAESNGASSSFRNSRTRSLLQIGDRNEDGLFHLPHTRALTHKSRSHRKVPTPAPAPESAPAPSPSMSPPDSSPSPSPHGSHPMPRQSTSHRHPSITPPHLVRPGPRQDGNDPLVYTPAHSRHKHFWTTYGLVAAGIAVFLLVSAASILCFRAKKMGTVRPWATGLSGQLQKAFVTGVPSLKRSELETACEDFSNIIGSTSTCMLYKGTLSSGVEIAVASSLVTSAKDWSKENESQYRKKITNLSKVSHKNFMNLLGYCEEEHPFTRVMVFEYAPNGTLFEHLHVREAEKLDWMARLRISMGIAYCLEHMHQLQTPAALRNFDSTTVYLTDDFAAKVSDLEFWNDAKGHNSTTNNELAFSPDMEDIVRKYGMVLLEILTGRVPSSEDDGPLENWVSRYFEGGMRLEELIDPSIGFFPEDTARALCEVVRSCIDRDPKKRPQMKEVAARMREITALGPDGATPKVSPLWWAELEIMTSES
- method_summary: biochemical
- study_conditions: read-out: dTm B, sheet ZmDRIK1-K217-S514;; DSF, Boltzmann fit, 0.1% DMSO

Here's what some known entries look like.
molecule	ΔTm at 10 µM
N#Cc1c(NC(=O)c2cccc3ccccc23)sc2c1CCCC2	-0.601 °C
O=C(c1ccc(/C=C/c2n[nH]c3ccccc23)cc1)N1CCNCC1	-0.13 °C
O=C(Nc1c[nH]nc1-c1nc2ccc(CN3CCOCC3)cc2[nH]1)NC1CC1	-0.536 °C
CCOc1ccn(-c2ccc(F)cc2)c(=O)c1C(=O)Nc1ccc(Oc2ccnc(N)c2Cl)c(F)c1	-0.662 °C

Field ΔTm at 10 µM (ZmDRIK1-K217-S514 (Zea mays)), entry C=CC(=O)N1CCN(c2nc(=O)n(-c3c(C)ccnc3C(C)C)c3nc(-c4c(O)cccc4F)c(F)cc23)[C@@H](C)C1 [K-Ras(G12C) inhibitor 9] : -0.321 °C

###

- system: ZmDRIK1 (DROUGHT RESPONSIVE INACTIVE KINASE 1), kinase domain (Zea mays, UniProt C0P4K9)
- Construct: gene ZEAMMB73_Zm00001d028770; ZmDRIK1-KD R187-S514 (kinase domain)
- method_summary: biochemical
- study_conditions: read-out: dTm B, sheet ZmDRIK1-R187-S514;; DSF, Boltzmann fit, 0.1% DMSO
Can you tell me ΔTm at 10 µM for the items I'm about to list?
Answers are plain numbers, in °C.

molecule	ΔTm at 10 µM / °C
C=CC(=O)Nc1cccc(Nc2nc(Nc3ccc(NC4CN(CCF)C4)cc3OC)ncc2C(F)(F)F)c1	-0.903

Respectfully, I request ΔTm at 10 µM for each entry included below.
1. C#Cc1cccc(Nc2ncnc3cc(OC)c(OCCCCCCC(=O)NO)cc23)c1
2. O=c1cc(N2CCOCC2)oc2c(-c3cccc4c3sc3ccccc34)cccc12

Result:
[-0.684, -0.875]

Respectfully, I request ΔTm at 10 µM for each entry included below.
1. Cc1cc(C(C)Nc2ccccc2)c2nc(N3CCOCC3)cc(=O)n2c1 (centres unmarked)
2. CC(C)n1nc(-c2ccc3oc(N)nc3c2)c2c(N)ncnc21
3. COc1ccc(-c2ccc3c(N4CCOCC4)nc(N4C[C@@H](C)O[C@@H](C)C4)nc3n2)cc1CO
4. c1cncc(CN2CCC(n3ncc4c(N5CCOCC5)nc(-c5ccc6[nH]ccc6c5)nc43)CC2)c1

Result:
1: -0.944; 2: -0.628; 3: -0.516; 4: -0.643

Respectfully, I request ΔTm at 10 µM for each entry included below.
1. N#CC(=C(/N)Sc1ccccc1N)/C(C#N)=C(\N)Sc1ccccc1N
2. CC1(COc2ccc3c(c2)ncn3-c2ccc3cccc(N4CCC(N)CC4)c3n2)COC1

Result:
-1.26
-0.526

Respectfully, I request ΔTm at 10 µM for each entry included below.
1. C=CC(=O)Nc1cccc(Sc2nc(Nc3ccc(N4CCN(C)CC4)cc3)ncc2Cl)c1
2. CC(C)(C)n1nc(-c2ccc(Cl)cc2)c2c(N)ncnc21

Result:
1. -0.927
2. -0.713
